# Tested on: N. meningitidis
# METHOD_NOTES: MIC, CLSI broth microdilution, invasive isolates
# Format: cell-based
# STUDY_CONDITIONS: Neisseria meningitidis; 62 N. meningitidis isolates
REPORTED_PROPERTY: MIC90

The following compounds have reported results that may help.
CO/N=C(\C(=O)N[C@@H]1C(=O)N2C(C(=O)O)=C(CSc3nc(=O)c(=O)[nH]n3C)CS[C@H]12)c1csc(N)n1 | ≤ 0.015 µg/mL
CC[C@H]1OC(=O)[C@H](C)[C@@H](O[C@H]2C[C@@](C)(OC)[C@@H](O)[C@H](C)O2)[C@H](C)[C@@H](O[C@@H]2O[C@H](C)C[C@H](N(C)C)[C@H]2O)[C@](C)(O)C[C@@H](C)C(=O)[C@H](C)[C@@H](O)[C@]1(C)O | 0.25 µg/mL

For the next question, use this compound.
Look up MIC90 for this compound: CC[C@H]1OC(=O)[C@@](C)(F)C(=O)[C@H](C)[C@@H](OC2OC(C)CC(N(C)C)C2O)[C@@](C)(OC)C[C@@H](C)C(=O)[C@H](C)[C@H]2N(CCCCn3cc(-c4cccc(N)c4)nn3)C(=O)O[C@]12C (stereo partly drawn)
≤ 0.015 µg/mL

* * *

The following molecules are listed with their measured MIC50 values.
# Tested on: N. meningitidis
# METHOD_NOTES: MIC, CLSI broth microdilution, invasive isolates
# Assay type: cell-based
# STUDY_CONDITIONS: Neisseria meningitidis; 62 N. meningitidis isolates
Express your answer in µg/mL, writing the number without its unit.

The following molecules have reported results that may help.
CC[C@H]1OC(=O)[C@H](C)[C@@H](O[C@H]2C[C@@](C)(OC)[C@@H](O)[C@H](C)O2)[C@H](C)[C@@H](O[C@@H]2O[C@H](C)C[C@H](N(C)C)[C@H]2O)[C@](C)(OC)C[C@@H](C)C(=O)[C@H](C)[C@@H](O)[C@]1(C)O [CLR, clarithromycin] | 0.03
CN(C)c1ccc(O)c2c1C[C@H]1C[C@H]3[C@H](N(C)C)C(O)=C(C(N)=O)C(=O)[C@@]3(O)C(O)=C1C2=O [Minocycline] | 0.12

For the next question, use this molecule.
Look up MIC50 for this molecule: CC[C@H]1OC(=O)[C@H](C)[C@@H](O[C@H]2C[C@@](C)(OC)[C@@H](O)[C@H](C)O2)[C@H](C)[C@@H](O[C@@H]2O[C@H](C)C[C@H](N(C)C)[C@H]2O)[C@](C)(O)C[C@@H](C)C(=O)[C@H](C)[C@@H](O)[C@]1(C)O [Erythromycin, erythromycin A]
0.12

* * *

# Test system: S. pyogenes
# METHOD_NOTES: microbe, parasite or virus in culture
# Format: cell-based
# STUDY_CONDITIONS: Streptococcus pyogenes, read-out: Selected Resistance (MIC), strain 2132 Macrolide-S, after serial passages in the drug
REPORTED_PROPERTY: MIC (µg/mL)
Express your answer in µg/mL, writing the number without its unit.

The following molecules have reported results that may help.
CC[C@H]1OC(=O)[C@H](C)[C@@H](O[C@H]2C[C@@](C)(OC)[C@@H](O)[C@H](C)O2)[C@H](C)[C@@H](O[C@@H]2O[C@H](C)C[C@H](N(C)C)[C@H]2O)[C@](C)(O)C[C@@H](C)CN(C)[C@H](C)[C@@H](O)[C@]1(C)O [AZI, azithromycin] | 1
CC[C@H]1OC(=O)[C@H](C)[C@@H](O[C@H]2C[C@@](C)(OC)[C@@H](O)[C@H](C)O2)[C@H](C)[C@@H](O[C@@H]2O[C@H](C)C[C@H](N(C)C)[C@H]2O)[C@](C)(OC)C[C@@H](C)C(=O)[C@H](C)[C@@H](O)[C@]1(C)O [CLR, clarithromycin] | 0.016
CC[C@H]1OC(=O)[C@H](C)C(=O)[C@H](C)[C@@H](O[C@@H]2O[C@H](C)C[C@H](N(C)C)[C@H]2O)[C@](C)(OC)C[C@@H](C)C(=O)[C@H](C)[C@H]2N(CCCCn3cnc(-c4cccnc4)c3)C(=O)O[C@]12C [TEL, telithromycin] | 0.03

For the next question, use this molecule.
Look up MIC for this molecule: CCC[C@@H]1C[C@@H](C(=O)N[C@@H]([C@H]2O[C@H](SC)[C@H](O)[C@@H](O)[C@H]2O)[C@H](C)Cl)N(C)C1 [CLN, clindamycin]
0.06

Every entry's value here was drawn from patent US9901592B2.
